# subject_of_test: T1, Mouse VSIG4-His (mouse)
# T1 construct: ECD with His tag; also called mVSIG4
# T1 chain: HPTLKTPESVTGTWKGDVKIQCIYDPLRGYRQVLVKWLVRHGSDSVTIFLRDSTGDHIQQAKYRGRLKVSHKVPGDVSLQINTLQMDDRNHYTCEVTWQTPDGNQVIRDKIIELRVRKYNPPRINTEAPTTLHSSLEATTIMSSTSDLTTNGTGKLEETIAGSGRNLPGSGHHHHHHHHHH
# method_description: ELISA, IgG 50 nM on coated antigen;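 further: Mouse-human chimeric IgG4 antibodies incubated 1 h on plate-coated VSIG4 proteins, bound IgG detected with HRP-labelled anti-human IgG, irrelevant antibody and protein as specificity controls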
measure: ELISA OD450 (OD450)

INSERT INTO results (binder, measure, uom, meas_value) VALUES
  ('16E10 mouse/human chimeric IgG4 (S228P) kappa (antibody, V domains shown) VH: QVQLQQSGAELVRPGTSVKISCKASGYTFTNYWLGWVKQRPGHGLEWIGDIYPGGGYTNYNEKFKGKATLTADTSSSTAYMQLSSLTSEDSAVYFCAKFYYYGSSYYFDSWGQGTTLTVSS VL: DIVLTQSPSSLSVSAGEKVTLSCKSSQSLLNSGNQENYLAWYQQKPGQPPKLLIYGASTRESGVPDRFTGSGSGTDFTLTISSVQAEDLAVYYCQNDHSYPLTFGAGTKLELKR', 'ELISA OD450', 'OD450', 0.048),
  ('15C03 mouse/human chimeric IgG4 (S228P) kappa (antibody, V domains shown) VH: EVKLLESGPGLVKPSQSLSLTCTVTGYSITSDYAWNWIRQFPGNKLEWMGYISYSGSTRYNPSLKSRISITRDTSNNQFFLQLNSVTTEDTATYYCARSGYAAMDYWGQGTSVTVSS VL: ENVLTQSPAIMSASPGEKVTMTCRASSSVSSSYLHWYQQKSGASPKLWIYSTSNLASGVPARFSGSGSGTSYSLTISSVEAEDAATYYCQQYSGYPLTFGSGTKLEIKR', 'ELISA OD450', 'OD450', 0.057);
